Biological target: Neurotensin receptor type 1 (Homo sapiens, UniProt P30989)
Sequence (P30989 whole entry): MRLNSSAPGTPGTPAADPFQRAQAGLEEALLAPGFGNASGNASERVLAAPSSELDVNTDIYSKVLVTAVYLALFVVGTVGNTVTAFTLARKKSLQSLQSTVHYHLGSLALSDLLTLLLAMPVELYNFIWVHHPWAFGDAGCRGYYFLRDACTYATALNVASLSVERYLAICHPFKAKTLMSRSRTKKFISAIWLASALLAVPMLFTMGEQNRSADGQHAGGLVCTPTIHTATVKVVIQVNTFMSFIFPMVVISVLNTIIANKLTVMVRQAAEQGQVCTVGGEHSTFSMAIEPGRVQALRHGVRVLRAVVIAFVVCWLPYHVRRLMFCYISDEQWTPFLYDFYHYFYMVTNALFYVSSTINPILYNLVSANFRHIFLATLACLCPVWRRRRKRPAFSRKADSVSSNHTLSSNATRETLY
Assay: Displacement of 125I-[Tyr3]-NT from human NTS1 receptor expressed in CHO-K1 cell membranes after 60 mins by gamma-counting method
pIC50: −log10 of the molar value. Numbered stars: 1 amine (or outer) side, 2 acyl side, 3 side chain; on linkers, the order of the positions; unused ones are H or OH. Bridge positions count the residues as written; N and C are the ends. Square brackets hold non-standard residues; d marks the D form. Peptide text beside a SMILES is read from it. * marks the point of attachment. X1 = O=C([C@H](Cc1ccc(O)c(CC=[*:3])c1)N[*:1])[*:2]; X3 = C=CCc1cc(C[C@H](N[*:1])C(=O)[*:2])ccc1O; AllylGly = C=CC[C@H](N)C(=O)O; X2 = C=CCCCCCCC(=O)*
quantity measured: pIC50

- molecule: "C=CC[C@H](NC(=O)[C@H](Cc1ccc(O)cc1)NC(=O)[C@@H]1CCCN1C(=O)[C@H](CCCCN)NC(=O)[C@@H](N)CC=C)C(=O)N[C@@H](CC(C)C)C(=O)O (H-[AllylGly]KPY[AllylGly]L-OH)"
  pIC50: 5.77

1 = CC[C@H](C)[C@H](NC(=O)[C@@H]1Cc2ccc(O)c(c2)CC=CC[C@H](NC(=O)[C@@H](N)CCCCN)C(=O)N2CCC[C@H]2C(=O)N1)C(=O)N[C@@H](CC(C)C)C(=O)O (H-K[AllylGly]P[X1]IL-OH; staple 2-4)
2 = C=CCCCCCCC(=O)N[C@@H](CCCCN)C(=O)N1CCC[C@H]1C(=O)N[C@@H](Cc1ccc(O)c(CC=C)c1)C(=O)N[C@H](C(=O)N[C@@H](CC(C)C)C(=O)O)[C@@H](C)CC (X2-KP[X3]IL-OH)
3 = CC(C)C[C@H](NC(=O)[C@@H]1CC=CC[C@H](N)C(=O)N[C@@H](CCCCN)C(=O)N2CCC[C@H]2C(=O)N[C@@H](Cc2ccc(O)cc2)C(=O)N1)C(=O)O
4 = CC(C)C[C@H](NC(=O)[C@@H]1COCC=CCc2cc(ccc2O)C[C@H](NC(=O)[C@@H]2CCCN2C(=O)[C@@H](N)CCCCN)C(=O)N1)C(=O)O
Ask: Rank the items in ascending order with respect to pIC50. Give the order by naming the labels one after another as requested.
Reply: 4, 3, 1, 2
